Items are presented alongside their recorded folding stability dG.
B1: 6YSE (parent)
chain: HERALMVNRLQKLTRMLRVHPDPKWKQEQQELIKRLK

Variants of: B1
protocol-text: folding stability dG (cDNA display proteolysis); higher = more stable
protocol-conditions: PBS, room temperature
Respond numerically; units are kcal/mol and should not be typed.

Recorded results for 5 variants are shown here.
>>> meas_value("K34L")
1.15
>>> meas_value("R35E")
0.729
>>> meas_value("K12D")
1
>>> meas_value("T14L")
1.13
>>> meas_value("N8K")
2.4

Problem: Dear colleague, please send me the reported folding stability dG for `V7G` when you can.
Solution: 0.569

Problem: Specify reported folding stability dG for the variant shown: `P21C`
Solution: 0.966

Problem: Please list folding stability dG recorded for the variant `Q27K`
Solution: 1.46

Problem: Kindly indicate its recorded folding stability dG. Item: `Q11L`
Solution: 1.69

Problem: # return recorded folding stability dG for input `K34E`
Solution: 1.14

Problem: Provide only the value of recorded folding stability dG for `P23T`
Solution: 0.669

Problem: Return value of folding stability dG for input `V7R` , no commentary.
Solution: 1.55

Problem: Give the reported value of folding stability dG for this record: `H1C`
Solution: 2.12

Problem: Give folding stability dG for the following variant: `I33N`
Solution: 0.375

Problem: For `P21K` , write its folding stability dG.
Solution: 1.04

Problem: Write down folding stability dG measured for item `K37W`
Solution: 1.43

Problem: Write down folding stability dG measured for item `V7E`
Solution: 1.11

Problem: Specify reported folding stability dG for the variant shown: `K37H`
Solution: 1.19
